Test system: TNF-α, BV2 mouse microglial cells
Assay: TNF-α reduction in LPS-stimulated BV2 microglia
Format: cell-based
Method: The BV2 mouse microglial cells were created by infecting primary mouse microglia with v-raf/v-myc oncogen-carrying retrovirus and donated by Dr. Sigal Fleisher—Berkovich (Ben-Gurion University of the Negev). […] The release of NO into the medium was determined by measurement of nitrite levels using Griess reagent reaction. […]
Where a name gives a salt, the structure may show the parent alone.
# Reduction in TNF-α levels, BV2 Microglia % peak reduction per record follows
Please give a number only; it is taken to be in %.

Check out these entries, answers already filled in.
INSERT INTO results (molecule, observed_value) VALUES
  ('Oc1cccc2c1CCN2 [AN-855, Indolin-4-ol hydrochloride]', 38.2),
  ('CCN(C)C(=O)Oc1cccc2c1C(CCC(=O)O)CN2 (stereo not shown) [AN-850, hydrochloride]', 30.5),
  ('CCN(C)C(=O)Oc1cccc2c1C(CCC(=O)OC)CN2 (stereo not shown) [AN-827, hydrochloride]', 38.5);

Enquiry: Given the molecule COC(=O)CCC1CNc2cccc(O)c21 (stereo not shown) [AN-832, hydrochloride] , write its reported Reduction in TNF-α levels, BV2 Microglia % peak reduction.
Return: 38.2

Enquiry: Fill in reported Reduction in TNF-α levels, BV2 Microglia % peak reduction for this entry: CCN(C)C(=O)Oc1cccc2c1CCN2 [AN-854, hydrochloride]
Return: 8.4

Enquiry: Give the reported Reduction in TNF-α levels, BV2 Microglia % peak reduction for this molecule. CCN(C)C(=O)Oc1cccc2c1CCN2CCC(=O)OC.Cl
Return: 18.6

Enquiry: Report Reduction in TNF-α levels, BV2 Microglia % peak reduction, nothing else, for this molecule: COC(=O)CCC1CNc2cc(O)ccc21 (stereo not shown) [AN-682, hydrochloride]
Return: 17.6

Values were extracted from patent US9499484B2.
